FYI, the data here is from PubChem BioAssay (NCATS).

assay: Cellular viability qHTS for adrenocortical cancer (ACC) cell line SW-13 (AID 1963989); conditions: SW-13 ACC cells viability, CellTiter-Glo, 48 h; active compounds read low; further: nearly all actives have a fitted effect of over 65% in size;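 on activity (max response): cells grown in serum-free medium with ITS supplement; on the % scale 0 is the no-effect control and ±100 the full control effect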
Inconclusive results are not listed.
Overview of recorded activity (max response) for various compounds
Kindly answer with a numeric value in %, unit omitted.

Worked examples, 4 compounds total:
Cl/C(=C\n1cncn1)c1ccc(Cl)cc1Cl :: 2.66
CCn1c(N)c(C(=O)NC)c(=O)c2ccc(C#CC(C)(O)COC)nc21 (centres undefined) :: 12.5
N#CCC(=O)NN :: 8.55
C[C@@]12CCC[C@H]1[C@@H]1CC[C@H]3C[C@@H](O)CC[C@]3(C)[C@H]1CC2 :: -0.85

Using the record for CC[N+](CC)(CCNC(=O)C(=O)NCC[N+](CC)(CC)Cc1ccccc1Cl)Cc1ccccc1Cl , report its activity (max response).
-1.37

Further, for Cc1cccc(-c2nn3c(c2-c2ccnc4ccc(C(N)=O)cc24)CCC3)n1 ?
14.6

Further, for O=C(Nc1ccc(-c2ccnc(Nc3ccc(N4CCOCC4)cc3)n2)cc1)C1CCCN1 (centres undefined) ?
-0.397

Further, for Cc1csc(NC(=O)c2sc3nc4c(c(C(F)(F)F)c3c2N)CCC4)n1 ?
-2.72

----------
test: Viability qHTS for spleen associated tyrosine kinase inhibitor (SYKi) naive MV4-11 cells (AID 1963823); settings: MV4-11 AML viability, CellTiter-Glo luminescence, 72 h; series mostly up to 45 µM; further: nearly all actives have a fitted effect of over 40% in size
Inconclusive results are not listed. Activity calls are given as the source filed them. Calls come from the whole dose curve; as a rule, active = well fitted cell-killing curve with a large enough effect; inconclusive = small, poorly fitted or top-dose-only effect, or effect the other way; inactive = no such curve, though single readings can be large or run the other way.
Choose one outcome from this list and give only that: true for active, false for inactive

O=C1CSC(=O)N1C(CCc1ccncc1)COc1ccc(-c2cccc([N+](=O)[O-])c2)cc1 (centres undefined) :: true
O=C(O)c1cccc(S(=O)(=O)N2CCc3ccccc3C2)c1 :: false
CCOc1cc(CC(=O)NC(CC(C)C)c2ccccc2N2CCCCC2)ccc1C(=O)O (centres undefined) :: false
CCC(=O)N[C@H]1CC[C@H](C(=O)N(C)c2ccc(-c3nc4ccccc4o3)cc2)C1 :: true
CC(C)[C@H](CO)Nc1nc(Nc2cccc(Cl)c2)c2ncn(C(C)C)c2n1 :: true

Please let me know the test result on file for C[C@@H]1CC[C@H]2C(C)(C)[C@H](O)[C@H](O)C[C@]2(C)[C@@]12Cc1c(O)cc3c(c1O2)CNC3=O .
false

Further, for Cc1cn2cc(C(=O)N(C)CCO)cc(NC3CCOc4cccc(C)c43)c2n1 (centres undefined) ?
false

----------
Overview of recorded Potency for various compounds
Assay: Cellular viability qHTS for adrenocortical cancer (ACC) cell line SW-13 (AID 1963989); further: nearly all actives have a fitted effect of over 65% in size; further: potency means the concentration at half of the fitted maximal effect
Conditions: SW-13 ACC cells viability, CellTiter-Glo, 48 h
Text: PI: Naris Nilubol, MD Surgical Oncology Program, National Cancer Institute (NCI) National Institute of Health (NIH), Bethesda, Maryland Adrenocortical cancer (ACC) is a rare malignancy with poor survival outcomes and few treatment options. Currently, mitotane is the only FDA-approved therapy for ACC. […] Through a quantitative high-throughput drug screen (qHTS), we identified auranofin (AF), a thioredoxin reductase (TXNRD) inhibitor, as a promising candidate drug. […]
Results filed as inconclusive are left out. Activity calls are given as the source filed them. The call rests on the fitted dose curve; in most records, active means well fitted cell-killing curve with a large enough effect; inconclusive means small, poorly fitted or top-dose-only effect; inactive means flat fitted curve, though single readings scatter.

Using the record for CNC1CCC(N(Cc2cccc(-c3ccncc3)c2)C(=O)c2sc3ccccc3c2Cl)CC1 (stereo not drawn) , report its Potency.
10 µM (active)

Further, for COc1cccc2c1C(=O)c1c(O)c3c(c(O)c1C2=O)C[C@@](O)(C(=O)CO)C[C@@H]3O[C@H]1C[C@H](N)[C@@H](O)[C@H](C)O1 ?
1.12 µM (active)

Further, for CCN1C(=O)CNc2ncc(-c3ccc(-c4ncn[nH]4)nc3C)nc21 ?
8.91 µM (active)

Further, for c1ccc(-c2ccc(C(c3ccccc3)n3ccnc3)cc2)cc1 (stereo not drawn) ?
18.4 µM (active)

Further, for CC[C@]1(O)CC2CN(CCc3c([nH]c4ccccc34)[C@@](C(=O)OC)(c3cc4c(cc3OC)N(C)[C@H]3[C@@](O)(C(=O)OC)[C@H](OC(C)=O)[C@]5(CC)C=CCN6CC[C@]43[C@@H]65)C2)C1 (stereo partly drawn) ?
0.282 µM (active)

Further, for O=C1NC(=O)/C(=C/c2ccc(-c3ccc(F)cc3O)o2)S1 ?
28.2 µM (active)

Further, for c1cc(-c2cnn3cc(-c4ccc(N5CCNCC5)cc4)cnc23)c2cccnc2c1 ?
22.4 µM (active)

Further, for CC(C)(C)c1[nH]cnc1/C=c1\[nH]c(=O)/c(=C/c2ccccc2)[nH]c1=O ?
0.0398 µM (active)

Further, for CN(C)CCN1C(=O)c2cccc3cc(NC(N)=O)cc(c23)C1=O ?
17.8 µM (active)

Further, for NC(=O)c1ccc2nc(-c3ccc(Oc4ccc(Cl)cc4)cc3)[nH]c2c1 ?
28.2 µM (active)

Further, for COc1ccc([C@@H](O)[C@@H](C)Oc2ccc([C@H]3O[C@H](c4ccc(O[C@H](C)[C@H](O)c5ccc(OC)c(OC)c5)c(OC)c4)[C@H](C)[C@H]3C)cc2OC)cc1OC ?
0.316 µM (active)

Further, for C1=C/COCc2cc(ccc2OCCN2CCCC2)Nc2nccc(n2)-c2cccc(c2)COC/1 ?
4.47 µM (active)

Further, for CC(=O)Nc1ccc([C@H](C)C(=O)Nc2ncc(C(C)C)s2)cc1 ?
1.26 µM (active)

Further, for COc1ccc(F)c(F)c1C(=O)c1cnc(NC2CCN(S(C)(=O)=O)CC2)nc1N ?
3.55 µM (active)

Further, for N#Cc1c(NC(=O)c2cccc3ccccc23)sc2c1CCCC2 ?
0.282 µM (active)

Further, for CN1CCN(Cc2ccc(Nc3ncc(Cl)c(Nc4ccccc4S(=O)(=O)N(C)C)n3)cc2)CC1 ?
0.75 µM (active)

Further, for CN(C)C(=S)SC(=S)N(C)C ?
9.2 µM (active)

Further, for O=C(/C=C/C#Cc1cccc(NS(=O)(=O)c2ccccc2)c1)NO ?
8.02 µM (active)

----------
test: Quantitative highthroughput screen to assess conditional lethalithy of P12 Ichikawa cells grown in RPMI1640 with untreated serum (RPMI+s) (AID 1963881); details: ATP luminescence, 48 h; viability; series mostly up to 45.8 µM; further: nearly all actives have a fitted effect of over 35% in size;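 on viability: 100% = DMSO wells and 0% = empty wells without cells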
Records with an inconclusive call do not appear. Activity calls are given as the source filed them. The call rests on the fitted dose curve; in most records, active means well fitted cell-killing curve with a large enough effect; inconclusive means small, poorly fitted or top-dose-only effect; inactive means flat fitted curve, though single readings scatter.
Choose one outcome from this list and give only that: active, inactive

CCN(C)C(=O)Oc1cccc([C@H](C)N(C)C)c1 :: inactive
CC(C)(C)c1cnc(CSc2cnc(NC(=O)C3CCNCC3)s2)o1 :: active
Nc1nc(=O)n([C@H]2CSC(CO)O2)cc1F (stereo not given in full) :: inactive

Please let me know the test result on file for CO[C@@H]1[C@@H](O)[C@H](O)[C@@H](n2c3c(Cl)cccc3c3c4c(c5c6cccc(Cl)c6[nH]c5c32)C(=O)NC4=O)O[C@@H]1CO .
active

Further, for COc1cc2c(Nc3ccc(NC(=O)c4ccccc4)cc3)ncnc2cc1OCCCN1CCOCC1 ?
active

Further, for N#Cc1ccc(C(c2ccc(C#N)cc2)n2cncn2)cc1 ?
inactive

Further, for CC1(C)CC(=O)c2c(C(F)(F)F)nn(-c3ccc(C(N)=O)c(NC4CCC(O)CC4)c3)c2C1 (stereo not given) ?
active

Further, for Nc1ccccc1NC(=O)c1ccc(CNC(=O)OCc2cccnc2)cc1 ?
active

Further, for Cn1c(=O)c(-c2c(Cl)cccc2Cl)cc2cnc(Nc3cccc(C(=O)O)c3)nc21 ?
inactive

Further, for N=C(N=C(N)N)N1CCOCC1 ?
inactive

----------
test: Quantitative highthroughput screen to assess conditional lethalithy of P12 Ichikawa cells grown in RPMI1640 with dialyzed fetal bovine serum (RPMI+ds) (AID 1963880); settings: ATP luminescence, 48 h; P12-Ichikawa viability; series mostly up to 45.8 µM; further: nearly all actives have a fitted effect of over 35% in size;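 on viability: 100% = DMSO wells and 0% = empty wells on each plate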
Results filed as inconclusive are left out. Activity calls are given as the source filed them. Calls follow the shape of the dose curve; as a rule, active = well fitted cell-killing curve with a large enough effect; inconclusive = small, poorly fitted or top-dose-only effect; inactive = flat fitted curve, though single readings scatter.
Choose one outcome from this list and give only that: yes for active, no for inactive

Here are 5 compounds together with their reported answers.
CO[C@H]1/C=C\O[C@@]2(C)Oc3c(C)c(O)c4c(O)c(c(C=NN5CCN(C6CCCC6)CC5)c(O)c4c3C2=O)NC(=O)C(C)=CC=C[C@H](C)[C@H](O)[C@@H](C)[C@@H](O)[C@@H](C)[C@H](OC(C)=O)[C@H]1C :: yes
COc1ccc(CCC(=O)c2c(O)cc(O[C@@H]3O[C@H](CO)[C@@H](O)[C@H](O)[C@@H]3O[C@@H]3O[C@@H](C)[C@H](O)[C@@H](O)[C@@H]3O)cc2O)cc1O :: no
O=C(O)c1ccc2c(c1)nc(Nc1cccc(Cl)c1)c1ccncc12 :: yes
COC(=O)C1=C(C)NC(C)=C(C(=O)OCCN2CCN(C(c3ccccc3)c3ccccc3)CC2)C1c1cccc([N+](=O)[O-])c1 (centres undefined) :: no
CNCc1ccc(-c2[nH]c3cc(F)cc4c3c2CCNC4=O)cc1 :: no

Please let me know the test result on file for CC(C[N+](C)(C)C)OC(N)=O (centres undefined) .
no

Further, for C[C@@H]1CC(=O)NN=C1c1ccc(NN=C(C#N)C#N)cc1 ?
yes

Further, for Cc1onc(-c2ccccc2Cl)c1C(=O)N[C@@H]1C(=O)N2[C@@H]1SC(C)(C)[C@@H]2C(=O)O ?
no

Further, for NC(=O)Nc1cc(-c2cccc(F)c2)sc1C(=O)N[C@H]1CCCNC1 ?
yes
